# Assay Procedure: Solubility testing in vehicle, HPLC (Form III)
# Assay type: physicochemical
# Test Settings: aqueous with cosolvent or surfactant or cyclodextrin, thermodynamic from solid; 5% PVP K30; RT; 24 h; pH 4.0; loading 15 mg/mL
Measured Property: solubility at 24 h (µg/mL)
Express it in µg/mL; write the number only.

solubility at 24 h for C=CC(=O)N1CCC[C@@H](c2c(F)cc(C(N)=O)c3[nH]c4c(c23)CCCCC4)C1 is 8

###

# Assay Procedure: Phase 1 multiple ascending dose plasma pharmacokinetics
# Type: in vivo, human
# Test Settings: human, plasma, oral, 15 mg, Cohort 7, 15 mg once daily, fed, Day 10, median; read-out: T1/2 (converted)
# Source text: Part A is a randomized, double-blind, placebo-controlled, single- and -multiple-dose study with staggered dose escalation, administered in the fed state (standard moderate-fat meal). Part A consists of […] (up to 7 single-ascending dose [SAD] cohorts [Cohorts 1-6 & 14], and up to 3 multiple ascending dose [MAD] cohorts [Cohorts 7-9]). […]
Measured Property: half-life (h)
Express it in h; write the number only.

half-life for C=CC(=O)N1CCC[C@@H](c2c(F)cc(C(N)=O)c3[nH]c4c(c23)CCCCC4)C1 is 3.37

// provenance: patent US20250243176A1
